# Tested on: FB
# assayName: Euclidean distance of Cell Painting phenotypic profile (signed KS, 77 features) to DMSO centroid (dimensionless distance); 5 or 10 uM (library dependent); higher = stronger phenotypic change vs DMSO (phenoactivity)
# testConditions: 48 h
Structures can show the parent of a compound that is named as a salt.
Please provide measured Euclidean distance for the entries that follow.
Give the value as a plain number.

Record request: Euclidean distance value, item CCN(CC)CCOC(=O)C1(C2CCCCC2)CCCCC1 [Dicyclomine HCl]
1.16

Input COC(=O)N[C@@H](C)CNc1nccc(-c2cn(C(C)C)nc2-c2cc(Cl)cc(NS(C)(=O)=O)c2F)n1
2.67

Input C[C@H](CS)C(=O)N1CCC[C@H]1C(=O)O
0.971

Input COc1c(-c2ccc3cc(NS(C)(=O)=O)ccc3c2)cc(-n2ccc(=O)[nH]c2=O)cc1C(C)(C)C
1.48

Input CCC(=O)Nc1cccc(Oc2nc(Nc3ccc(N4CCN(C)CC4)cc3OC)ncc2Cl)c1
1.15

Input COc1c2occc2cc2ccc(=O)oc12
0.948

Input COc1ccc(C(C)=O)c(O)c1
0.979

Input COC(=O)C1=CO[C@@H](O)[C@@H]2C(CO)=CC[C@H]12
1.15

Input CC1(C)S[C@@H]2[C@H](NC(=O)[C@H](N)c3ccc(O)cc3)C(=O)N2[C@H]1C(=O)O [Amoxicillin Sodium]
1.06
